# measured_on: human FXR (NR1H4) (Homo sapiens (Human))
# measurement_protocol: Human FXR (NR1H4) Assay (Gal4 promoter driven luciferase reporter, Indigo Bioscience kit)
# condition_notes: Human FXR (NR1H4) Assay, potency ranges
pEC50: −log10 of the molar value.
parameter: pEC50

Use the examples below as a reference point.
>>> data_value("CC[C@H]1[C@@H](O)[C@@H]2[C@H](CC[C@]3(C)[C@@H]([C@H](C)CCOC(=O)NS(=O)(=O)c4cccc(OC(F)(F)F)c4)CC[C@@H]23)[C@@]2(C)CC[C@@H](O)C[C@@H]12 [Example 63]")
"> 7.00"
>>> data_value("CC[C@H]1[C@@H](O)[C@@H]2[C@H](CC[C@]3(C)[C@@H]([C@H](C)CCOC(=O)NS(=O)(=O)c4ccc(-c5ccccc5)s4)CC[C@@H]23)[C@@]2(C)CC[C@@H](O)C[C@@H]12 [Example 64]")
"6.00 to 7.00"
>>> data_value("CC[C@H]1[C@@H](O)[C@@H]2[C@H](CC[C@]3(C)[C@@H]([C@H](C)COC(=O)NS(=O)(=O)c4ccc(-n5cnnn5)nc4)CC[C@@H]23)[C@@]2(C)CC[C@@H](O)C[C@@H]12 [Example 44-d]")
"6.00 to 7.00"
>>> data_value("CC[C@H]1[C@@H](O)[C@@H]2[C@H](CC[C@]3(C)[C@@H]([C@H](C)CCOC(=O)Nc4ccc(F)cc4Cl)CC[C@@H]23)[C@@]2(C)CC[C@@H](O)C[C@@H]12 [Example 193]")
"5.00 to 6.00"

Shift focus to the following entry.
Please provide the recorded pEC50 for CC[C@H]1[C@@H](O)[C@@H]2[C@H](CC[C@]3(C)[C@@H]([C@H](C)CCCOC(=O)NS(=O)(=O)C4CCCCC4)CC[C@@H]23)[C@@]2(C)CC[C@@H](O)C[C@@H]12 [Example 2] , tested on human FXR (NR1H4) (Homo sapiens (Human)).
6.00 to 7.00

----------
# measured_on: human FXR (NR1H4) (Homo sapiens (Human), UniProt Q96RI1)
# Sequence (Q96RI1 whole entry, the tested form may be a part): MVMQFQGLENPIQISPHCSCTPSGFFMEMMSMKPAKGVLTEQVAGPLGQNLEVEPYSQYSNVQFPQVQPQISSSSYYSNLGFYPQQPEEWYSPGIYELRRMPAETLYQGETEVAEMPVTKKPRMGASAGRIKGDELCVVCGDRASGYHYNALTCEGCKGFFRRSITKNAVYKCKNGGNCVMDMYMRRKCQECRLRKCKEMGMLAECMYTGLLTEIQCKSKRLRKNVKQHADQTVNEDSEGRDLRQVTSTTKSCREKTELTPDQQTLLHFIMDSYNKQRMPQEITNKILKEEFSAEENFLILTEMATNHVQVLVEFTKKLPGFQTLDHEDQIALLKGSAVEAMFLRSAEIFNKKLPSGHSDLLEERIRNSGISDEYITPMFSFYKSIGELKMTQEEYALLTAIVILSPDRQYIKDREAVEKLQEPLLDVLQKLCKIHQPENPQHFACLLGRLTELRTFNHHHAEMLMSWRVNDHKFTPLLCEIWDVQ
# measurement_protocol: Human FXR (NR1H4) Assay (Gal4 promoter driven luciferase reporter, Indigo Bioscience kit);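 as to Efficacy (%): 100% equals the efficacy of CDCA; efficacy normalized to CDCA set as 100%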
# Format: cell-based
# condition_notes: read-out: Efficacy (%)
Quick reference: Emax of the listed items.
Write down the numeric answer in % and omit the unit.

Please review the entries below; each comes with its answer.
>>> data_value("CC[C@H]1[C@@H](O)[C@@H]2[C@H](CC[C@]3(C)[C@@H]([C@H](C)CCOC(=O)NCCCC(=O)OC)CC[C@@H]23)[C@@]2(C)CC[C@@H](O)C[C@@H]12 [Example 187]")
421
>>> data_value("CC[C@H]1[C@@H](O)[C@@H]2[C@H](CC[C@]3(C)[C@@H]([C@H](C)CCOC(=O)N4CCCCS4(=O)=O)CC[C@@H]23)[C@@]2(C)CC[C@@H](O)C[C@@H]12 [Example 104-e]")
239

What does the record list as Emax for CC[C@H]1[C@@H](O)[C@@H]2[C@H](CC[C@]3(C)[C@@H]([C@H](C)COC(=O)NS(=O)(=O)c4ccc(-n5cnnn5)nc4)CC[C@@H]23)[C@@]2(C)CC[C@@H](O)C[C@@H]12 [Example 44-d] ?
195

Please look up its Emax: CC[C@H]1[C@@H](O)[C@@H]2[C@H](CC[C@]3(C)[C@@H]([C@H](C)CCOC(=O)NS(=O)(=O)c4ccc(OC)c(F)c4)CC[C@@H]23)[C@@]2(C)CC[C@@H](O)C[C@@H]12 [Example 94]
268

Reported Emax, compound CC[C@H]1[C@@H](O)[C@@H]2[C@H](CC[C@]3(C)[C@@H]([C@H](C)CCOC(=O)NC(C)C)CC[C@@H]23)[C@@]2(C)CC[C@@H](O)C[C@@H]12 [Example 136] : ____
185

----------
Emax overview
# measured_on: human FXR (NR1H4) (Homo sapiens (Human), UniProt Q96RI1)
# measurement_protocol: Human FXR (NR1H4) Assay (Gal4 promoter driven luciferase reporter, Indigo Bioscience kit);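 as to Efficacy (%): 100% equals the efficacy of CDCA; efficacy normalized to CDCA set as 100%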
# Assay type: cell-based
# condition_notes: read-out: Efficacy (%)
The answer is to be given in %; state only the numeric part.

Worked cases, Emax given:
>>> data_value("CC[C@H]1[C@@H](O)[C@@H]2[C@H](CC[C@]3(C)[C@@H]([C@H](C)CCOC(=O)NS(=O)(=O)c4ccc(OCC(F)(F)F)cc4)CC[C@@H]23)[C@@]2(C)CC[C@@H](O)C[C@@H]12")
289
>>> data_value("CC[C@H]1[C@@H](O)[C@@H]2[C@H](CC[C@]3(C)[C@@H]([C@H](C)COC(=O)NS(=O)(=O)c4ccc(N5CCOCC5)nc4)CC[C@@H]23)[C@@]2(C)CC[C@@H](O)C[C@@H]12")
197
>>> data_value("CC[C@H]1[C@@H](O)[C@@H]2[C@H](CC[C@]3(C)[C@@H]([C@H](C)CCOC(=O)NS(=O)(=O)c4ncccn4)CC[C@@H]23)[C@@]2(C)CC[C@@H](O)C[C@@H]12")
35
>>> data_value("CC[C@H]1[C@@H](O)[C@@H]2[C@H](CC[C@]3(C)[C@@H]([C@H](C)CCOC(=O)N(CCO)CCO)CC[C@@H]23)[C@@]2(C)CC[C@@H](O)C[C@@H]12")
333

Requested read-out: Emax. Entry: CC[C@H]1[C@@H](O)[C@@H]2[C@H](CC[C@]3(C)[C@@H]([C@H](C)CCOC(=O)NS(=O)(=O)c4ccc(-c5ccccc5)cc4)CC[C@@H]23)[C@@]2(C)CC[C@@H](O)C[C@@H]12
286

So what does the record say about Emax for CC[C@H]1[C@@H](O)[C@@H]2[C@H](CC[C@]3(C)[C@@H]([C@H](C)COC(=O)NS(=O)(=O)c4ccc(O)cc4)CC[C@@H]23)[C@@]2(C)CC[C@@H](O)C[C@@H]12 ?
182

Data request, read-out Emax, for CC[C@H]1[C@@H](O)[C@@H]2[C@H](CC[C@]3(C)[C@@H]([C@H](C)CCOC(=O)N4CCC(Cc5ccccc5)CC4)CC[C@@H]23)[C@@]2(C)CC[C@@H](O)C[C@@H]12
226

May I ask what Emax has been recorded for CC[C@H]1[C@@H](O)[C@@H]2[C@H](CC[C@]3(C)[C@@H]([C@H](C)CCOC(=O)NS(=O)(=O)N(C)C)CC[C@@H]23)[C@@]2(C)CC[C@@H](O)C[C@@H]12 ?
291

Entry CC[C@H]1[C@@H](O)[C@@H]2[C@H](CC[C@]3(C)[C@@H]([C@H](C)CCOC(=O)N[C@@H]4CCC[C@@H]4O)CC[C@@H]23)[C@@]2(C)CC[C@@H](O)C[C@@H]12 has what Emax?
174

----------
# measured_on: human FXR (NR1H4) (Homo sapiens (Human))
# measurement_protocol: Human FXR (NR1H4) Assay (Gal4 promoter driven luciferase reporter, Indigo Bioscience kit)
# condition_notes: Human FXR (NR1H4) Assay, potency ranges
pEC50: −log10 of the molar value.
parameter: pEC50

Sample records with pEC50:
>>> data_value("CC[C@H]1[C@@H](O)[C@@H]2[C@H](CC[C@]3(C)[C@@H]([C@H](C)CCOC(=O)N(CC)CC)CC[C@@H]23)[C@@]2(C)CC[C@@H](O)C[C@@H]12 [Example 163]")
"6.00 to 7.00"
>>> data_value("CC[C@H]1[C@@H](O)[C@@H]2[C@H](CC[C@]3(C)[C@@H]([C@H](C)CCCOC(=O)NS(=O)(=O)C(C)(C)C)CC[C@@H]23)[C@@]2(C)CC[C@@H](O)C[C@@H]12 [Example 117]")
"6.00 to 7.00"

Proceed to the following item.
So what does the record say about pEC50 for CC[C@H]1[C@@H](O)[C@@H]2[C@H](CC[C@]3(C)[C@@H]([C@H](C)CCOC(=O)N4CCC(CO)(CCl)CC4)CC[C@@H]23)[C@@]2(C)CC[C@@H](O)C[C@@H]12 [Example 183] ?
> 7.00

----------
Reported EC50 values for a set of compounds
# measured_on: human FXR (NR1H4) (Homo sapiens (Human), UniProt Q96RI1)
# measurement_protocol: Human FXR (NR1H4) Assay (Gal4 promoter driven luciferase reporter, Indigo Bioscience kit)
# Assay type: cell-based
# condition_notes: Human FXR (NR1H4) Assay, potency ranges

GET /values?readout=EC50&system=human FXR (NR1H4) (Homo sapiens (Human), UniProt Q96RI1)&item= CC[C@H]1[C@@H](O)[C@@H]2[C@H](CC[C@]3(C)[C@@H]([C@H](C)COC(=O)NS(=O)(=O)c4ccc(-n5ccnn5)nc4)CC[C@@H]23)[C@@]2(C)CC[C@@H](O)C[C@@H]12 [Example 44-n]
100 to 1000 nM
